# System: Senegal ZIKV
# assay comment: Zika virus high content imaging infection assay, Senegal strain DAK AR D 41525 in human astrocytes
# Format: cell-based
# study conditions: Astrocyte, 2 hours pretreatment, MOI 15, 48 hours, read-out: EC50 for inhibition of abundance of Senegal ZIKV in human astrocytes
observable: EC50 (µM)
Numeric answer only, unit µM assumed.

Query :: Find the recorded EC50 belonging to Oc1c(Cl)cc(Cl)cc1Sc1cc(Cl)cc(Cl)c1O and report it.
Result :: 6.3

---

# system under test: caspase-3 (Mus musculus)
# Construct: Caspases were induced in RAW264.7 by treating cells with 2 μg/ml of PE for 4 hours; endogenous in cells
# Sequence (P70677 29-175 limits assumed): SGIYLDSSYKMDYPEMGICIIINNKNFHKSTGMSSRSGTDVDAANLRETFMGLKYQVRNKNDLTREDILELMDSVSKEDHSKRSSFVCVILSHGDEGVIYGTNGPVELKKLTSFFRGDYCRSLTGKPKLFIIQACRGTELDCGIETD
# Sequence (P70677 176-277 limits assumed): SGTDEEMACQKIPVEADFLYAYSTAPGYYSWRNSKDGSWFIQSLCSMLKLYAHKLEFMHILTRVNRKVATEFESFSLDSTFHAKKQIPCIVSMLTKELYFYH
# assay comment: biochemical
observable: IC50 (µM)
Numeric answer only, unit µM assumed.

Query :: Find the recorded IC50 belonging to Oc1c(Cl)cc(Cl)cc1Sc1cc(Cl)cc(Cl)c1O [Bithionol] and report it.
Result :: 21

---

# system under test: caspase-3/7
# study conditions: read-out: IC50 for inhibition of proteolytic cleavage of caspase-3/7 substrate
observable: pIC50
The scale used: pIC50 is minus the common logarithm of the concentration in molar units.

Query :: Find the recorded pIC50 belonging to Oc1c(Cl)cc(Cl)cc1Sc1cc(Cl)cc(Cl)c1O [Bithionol] and report it.
Result :: 4.96

---

# system under test: caspase-6 (Mus musculus, UniProt O08738)
# Construct: Caspases were induced in RAW264.7 by treating cells with 2 μg/ml of PE for 4 hours; endogenous in cells
# Sequence (O08738 6-162 limits assumed): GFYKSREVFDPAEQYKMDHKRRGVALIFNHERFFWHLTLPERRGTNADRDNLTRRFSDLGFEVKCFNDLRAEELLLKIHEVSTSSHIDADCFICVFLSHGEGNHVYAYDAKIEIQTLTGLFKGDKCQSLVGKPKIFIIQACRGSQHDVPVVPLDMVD
# Sequence (O08738 176-276 limits assumed): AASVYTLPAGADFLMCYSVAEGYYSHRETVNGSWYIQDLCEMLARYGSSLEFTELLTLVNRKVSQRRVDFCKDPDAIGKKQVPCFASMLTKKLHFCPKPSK
# assay comment: biochemical
observable: pIC50
The scale used: pIC50 is minus the common logarithm of the concentration in molar units.

Query :: Find the recorded pIC50 belonging to Oc1c(Cl)cc(Cl)cc1Sc1cc(Cl)cc(Cl)c1O [Bithionol] and report it.
Result :: 4.89
